- assay target: GlcNAc(b1-4)[GlcNAc(b1-6)]GalNAc
- assay explanation: glycan array binding signal (z-score within array); higher = stronger binding
- assay setup: glycan notation: IUPAC condensed, linker removed
Shown is part of a subset that was picked to be rich in the strongest signals.
glycan array binding signal (z-score) overview

[[record]]
binder = "Flo1 (Saccharomyces cerevisiae), P32768 (protein) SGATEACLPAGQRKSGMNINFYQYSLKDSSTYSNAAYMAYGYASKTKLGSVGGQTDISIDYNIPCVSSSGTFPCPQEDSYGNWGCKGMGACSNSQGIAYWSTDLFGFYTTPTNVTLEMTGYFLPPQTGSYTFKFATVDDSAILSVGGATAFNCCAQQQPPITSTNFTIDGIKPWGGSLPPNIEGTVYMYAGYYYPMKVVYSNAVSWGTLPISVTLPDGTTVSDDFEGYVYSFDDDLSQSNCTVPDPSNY"
test_result = -0.024


## Input Could you tell me which glycan array binding signal (z-score) is on file for TES70 (Toxocara canis), Q9XYV5 (protein) MISVVLVAIALQISGSYAGACNSINDCGLFETCVNNMCVPDNMGCPMPCQAGQVCVPPNCVAAPAPQPVTTTTAAATTTTSARGRCNANAQCGAFEVCVNGMCQPNNAGCNPPCAANQVCVAPNCVPAPIPPPAQSTTTAPATTRAPPSCPPSWSPFSGHCYYVAVGSFLFNQASDWCTQTNSRPVWFDQSNVGTFGAELYFINVLAASRGVQTYWLGLNRQFGQWVWTNGSPLIFSNWRGSEPDGCCGGNVTCALVNYANPFGQWDDAGCGNIWRNPQGFICKKPLA ?
## Output 0.013

Where do these numbers come from? They come from the supplement of paper PMC8728848.
